src = patent US12685726B2

Tested system: human NaV 1.8 (Homo sapiens, UniProt Q9Y5Y9)
Sequence (Q9Y5Y9 whole entry): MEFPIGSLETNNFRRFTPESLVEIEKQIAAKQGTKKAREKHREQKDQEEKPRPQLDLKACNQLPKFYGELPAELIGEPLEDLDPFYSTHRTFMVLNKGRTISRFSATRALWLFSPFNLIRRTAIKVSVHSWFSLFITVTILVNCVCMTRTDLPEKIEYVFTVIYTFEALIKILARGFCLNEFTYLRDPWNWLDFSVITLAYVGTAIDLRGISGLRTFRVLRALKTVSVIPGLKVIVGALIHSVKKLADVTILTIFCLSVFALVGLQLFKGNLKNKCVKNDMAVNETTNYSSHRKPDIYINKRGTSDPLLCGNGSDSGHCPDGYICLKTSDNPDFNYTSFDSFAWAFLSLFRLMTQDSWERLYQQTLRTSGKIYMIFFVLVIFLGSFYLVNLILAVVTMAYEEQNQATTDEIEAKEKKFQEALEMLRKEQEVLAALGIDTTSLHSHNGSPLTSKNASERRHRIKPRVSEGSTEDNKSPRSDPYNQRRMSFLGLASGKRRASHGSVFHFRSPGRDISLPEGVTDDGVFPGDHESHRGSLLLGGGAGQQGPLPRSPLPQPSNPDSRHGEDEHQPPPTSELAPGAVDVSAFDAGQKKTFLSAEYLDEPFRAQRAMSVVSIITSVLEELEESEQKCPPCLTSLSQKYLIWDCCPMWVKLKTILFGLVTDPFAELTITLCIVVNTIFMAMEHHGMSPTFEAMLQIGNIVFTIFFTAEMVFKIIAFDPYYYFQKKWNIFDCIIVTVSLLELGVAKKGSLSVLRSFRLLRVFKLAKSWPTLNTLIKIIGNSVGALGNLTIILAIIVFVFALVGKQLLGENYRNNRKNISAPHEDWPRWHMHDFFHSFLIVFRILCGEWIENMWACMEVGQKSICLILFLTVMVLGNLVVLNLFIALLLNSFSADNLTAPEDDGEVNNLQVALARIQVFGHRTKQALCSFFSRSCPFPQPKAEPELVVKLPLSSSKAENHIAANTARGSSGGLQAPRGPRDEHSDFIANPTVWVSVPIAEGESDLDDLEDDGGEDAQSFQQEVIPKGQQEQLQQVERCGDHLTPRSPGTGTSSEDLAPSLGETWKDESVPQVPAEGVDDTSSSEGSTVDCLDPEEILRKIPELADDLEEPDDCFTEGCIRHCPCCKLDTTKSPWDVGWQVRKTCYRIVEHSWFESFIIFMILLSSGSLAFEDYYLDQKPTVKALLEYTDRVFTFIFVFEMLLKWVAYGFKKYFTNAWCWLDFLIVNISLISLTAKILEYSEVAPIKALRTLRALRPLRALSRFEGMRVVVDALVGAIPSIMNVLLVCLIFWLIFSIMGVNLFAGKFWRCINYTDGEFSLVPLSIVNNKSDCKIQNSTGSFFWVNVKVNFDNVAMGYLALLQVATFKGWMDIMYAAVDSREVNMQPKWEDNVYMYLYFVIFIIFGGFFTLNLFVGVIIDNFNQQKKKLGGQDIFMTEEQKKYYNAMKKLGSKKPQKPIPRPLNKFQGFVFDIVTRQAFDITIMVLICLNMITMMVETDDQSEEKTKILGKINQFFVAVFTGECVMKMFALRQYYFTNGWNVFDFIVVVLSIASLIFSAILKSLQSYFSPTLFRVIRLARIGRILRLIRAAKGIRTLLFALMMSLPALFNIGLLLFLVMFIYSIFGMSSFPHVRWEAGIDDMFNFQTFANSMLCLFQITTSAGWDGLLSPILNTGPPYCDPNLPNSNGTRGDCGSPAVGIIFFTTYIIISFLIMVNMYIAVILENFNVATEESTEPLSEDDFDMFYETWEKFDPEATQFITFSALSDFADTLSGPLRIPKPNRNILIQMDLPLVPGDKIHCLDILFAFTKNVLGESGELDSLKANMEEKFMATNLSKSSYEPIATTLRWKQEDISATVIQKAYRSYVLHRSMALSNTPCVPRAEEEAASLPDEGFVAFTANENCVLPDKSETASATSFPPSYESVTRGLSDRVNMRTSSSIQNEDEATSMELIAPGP
Method notes: Automated whole-cell patch clamp (Qube384) voltage-clamp recordings of sodium currents in HEK-NaV1.8 cell line
Condition set: read-out: Potency category (human NaV 1.8 IC50)
Measured metric: IC50

In the examples that follow, each entry is paired with its recorded IC50.
# Molecule, Result
measured = [
    ("Cc1c(C(C)(F)F)nn(C[C@H]2C[C@@H](C(F)(F)F)C2)c1C(=O)Nc1ccnc(S(C)(=N)=O)c1 (single isomer, unassigned) [Example 31b]", "≤ 0.1 µM"),
    ("CCS(=N)(=O)c1cc(NC(=O)c2c(C(F)(F)F)c(C3CC3)nn2CC2(C)CC(F)(F)C2)ccn1 (single isomer, unassigned) [Example 48a]", "≤ 0.1 µM"),
]

// IC50 lookup, key: C[S@@](=N)(=O)c1cccc(NC(=O)c2c(C(F)(F)F)c(C3(F)CC3)nn2CC2C[C@@H]2C(F)(F)F)c1 (single isomer, unassigned) [Example 134a]
≤ 0.1 µM

====

Tested system: human NaV 1.8 (Homo sapiens, UniProt Q9Y5Y9)
Construct: expressed in transfected cells; host or cells: HEK (recombinant cell line)
Method notes: Automated whole-cell patch clamp (Qube384) voltage-clamp recordings of sodium currents in HEK-NaV1.8 cell line
Format: cell-based
Condition set: read-out: Potency category (human NaV 1.8 IC50)
Experimental: Electrophysiology: Voltage-Clamp Recordings The following NaV1.8 recombinant cell line was used for recordings: HEK-NaV1.8 (NM_006514.1) with b3 (NM_018400.3). Sodium currents were measured using the patch clamp technique in the whole-cell configuration using the Qube384 (Sophion A/S, Copenhagen, Denmark) automated voltage clamp platform. […] The adjusted inhibition was calculated as follows: […]
Measured metric: IC50

In the examples that follow, each entry is paired with its recorded IC50.
# Molecule, Result
data = [
    ("CC1(Cn2nc(C3(F)CC3)c(C(F)F)c2C(=O)Nc2cccc(S(C)(=N)=O)c2)CC(F)(F)C1 (single isomer, unassigned) [Example 135a]", "≤ 100 nM"),
    ("CC1(Cn2nc(C(C)(C)C)c(C(F)(F)F)c2C(=O)Nc2ccnc(S(C)(=N)=O)c2)CC(F)(F)C1 (single isomer, unassigned) [Example 143b]", "≤ 100 nM"),
    ("CC1(Cn2nc(C3(F)CC3)c(C(F)(F)F)c2C(=O)Nc2cccc(S(=N)(=O)C(F)F)c2)CC(F)(F)C1 (single isomer, unassigned) [Example 130a]", "≤ 100 nM"),
    ("CS(=N)(=O)c1cc(NC(=O)c2c(C(F)(F)F)c(C34CC(C3)C4)nn2CC2C[C@@H]2C(F)(F)F)ccn1 (stereo partly drawn) [Example 147]", "≤ 100 nM"),
    ("CC1(Cn2nc(C3(F)CC3)c(C(F)(F)F)c2C(=O)Nc2cccc(S(=N)(=O)C(F)(F)F)c2)CC(F)(F)C1 (stereo not drawn) [Example 131]", "≤ 100 nM"),
]

Now look at this entry.
// IC50 lookup, key: CC1(Cn2nc(C3CC3F)c(C(F)(F)F)c2C(=O)Nc2ccnc(S(C)(=N)=O)c2)CC(F)(F)C1 (single isomer, unassigned) [Example 62b]
≤ 100 nM

====

Tested system: human NaV 1.8 (Homo sapiens)
Method notes: Automated whole-cell patch clamp (Qube384) voltage-clamp recordings of sodium currents in HEK-NaV1.8 cell line
Condition set: read-out: Potency category (human NaV 1.8 IC50)
Measured metric: IC50

# Compound, Tested system, IC50
measured = [
    ("CC1(Cn2nc(C3CC34CC4)c(C(F)(F)F)c2C(=O)Nc2ccnc(S(C)(=N)=O)c2)CC(F)(F)C1 (single isomer, unassigned) [Example 64b]", "human NaV 1.8 (Homo sapiens)", "≤ 100 nM"),
]

API: value(readout= IC50, system= human NaV 1.8 (Homo sapiens), query= C[C@@]1(Cn2nc(C3CC3)c(C(F)(F)F)c2C(=O)Nc2ccnc([S@](C)(=N)=O)c2)CC(F)(F)C12CC2 (single isomer, unassigned) [Example 92c] )
≤ 100 nM

API: value(readout= IC50, system= human NaV 1.8 (Homo sapiens), query= C[S@](=N)(=O)c1cc(NC(=O)c2c(C(F)(F)F)c(C3CC3)nn2C[C@H]2C(F)(F)C23CC3)ccn1 (single isomer, unassigned) [Example 79b] )
≤ 100 nM
